- Measurement target: Vascular endothelial growth factor receptor 3 (Homo sapiens, UniProt P35916)
- Sequence (P35916 whole entry): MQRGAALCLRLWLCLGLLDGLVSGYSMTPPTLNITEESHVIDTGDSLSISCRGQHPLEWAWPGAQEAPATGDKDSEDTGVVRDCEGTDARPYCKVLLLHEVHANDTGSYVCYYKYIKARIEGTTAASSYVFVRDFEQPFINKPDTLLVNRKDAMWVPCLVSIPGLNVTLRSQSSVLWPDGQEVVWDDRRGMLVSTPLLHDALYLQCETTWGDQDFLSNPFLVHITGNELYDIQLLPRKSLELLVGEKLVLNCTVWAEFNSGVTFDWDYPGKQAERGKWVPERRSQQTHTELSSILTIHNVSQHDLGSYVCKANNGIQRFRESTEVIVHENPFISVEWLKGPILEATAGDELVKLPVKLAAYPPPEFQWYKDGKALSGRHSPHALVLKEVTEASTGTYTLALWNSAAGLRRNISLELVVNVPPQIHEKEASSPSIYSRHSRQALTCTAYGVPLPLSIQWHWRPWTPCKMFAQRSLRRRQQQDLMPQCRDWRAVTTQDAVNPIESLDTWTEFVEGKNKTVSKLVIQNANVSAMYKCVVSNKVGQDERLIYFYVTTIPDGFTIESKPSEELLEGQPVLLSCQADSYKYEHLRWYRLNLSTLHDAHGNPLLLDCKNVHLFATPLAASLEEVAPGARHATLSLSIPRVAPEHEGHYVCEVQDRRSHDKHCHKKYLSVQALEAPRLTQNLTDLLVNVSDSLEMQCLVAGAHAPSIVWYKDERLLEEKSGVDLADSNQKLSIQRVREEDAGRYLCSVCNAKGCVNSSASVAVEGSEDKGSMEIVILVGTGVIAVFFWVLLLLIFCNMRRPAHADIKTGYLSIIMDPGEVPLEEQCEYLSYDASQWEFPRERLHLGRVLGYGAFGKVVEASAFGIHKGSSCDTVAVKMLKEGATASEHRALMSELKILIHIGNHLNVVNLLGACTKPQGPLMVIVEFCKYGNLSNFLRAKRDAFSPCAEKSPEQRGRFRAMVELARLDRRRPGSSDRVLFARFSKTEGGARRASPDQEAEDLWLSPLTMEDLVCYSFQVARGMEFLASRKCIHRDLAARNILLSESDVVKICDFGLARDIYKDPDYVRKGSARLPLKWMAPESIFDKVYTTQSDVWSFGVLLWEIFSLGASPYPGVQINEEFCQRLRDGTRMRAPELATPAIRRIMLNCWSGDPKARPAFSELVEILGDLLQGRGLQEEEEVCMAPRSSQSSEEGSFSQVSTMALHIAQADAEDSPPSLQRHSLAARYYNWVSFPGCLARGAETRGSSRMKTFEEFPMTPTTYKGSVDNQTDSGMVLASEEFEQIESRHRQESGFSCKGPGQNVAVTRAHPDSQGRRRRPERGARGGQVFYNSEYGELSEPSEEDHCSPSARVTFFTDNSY
Reported property: IC50 (nM)
Express it in nM; write the number only.

Entry Cc1cccc(NC(=O)Nc2ccc(-c3nsc4ncnc(N)c34)cc2)c1 , IC50 reported as 4

----------
- Assay overview: Volume of distribution in mouse at 3 mg/kg, iv
- Format: ADME, organism-based
- Parameters: dose 3 mg/kg, route intravenous
- Details: in vivo, read-out: Vdss
Reported property: Vd (L/kg)

Smiles code | Vd [L/kg]
Cc1ccc(F)c(NC(=O)Nc2ccc(-c3nsc4ncnc(N)c34)cc2)c1 | 1.19
Cc1cccc(NC(=O)Nc2ccc(-c3nsc4ncnc(N)c34)cc2)c1 | 1.36
